Test system: NCI-H226 lung
Experiment: NCI-60 one-dose screen, 48 h
Details: 10 µM unless noted
Method: Growth inhibition of the NCI-H226 human Non-Small Cell Lung tumor cell line is measured as a screen for anti-cancer activity. Cells are grown in 96 well plates and exposed to the test compound for 48 hours. Compounds are tested at a single concentration, which is 10^-5 M for most compounds. The reported endpoint is percent growth (GI% or GIPRCNT), where numbers from 0 - 100% represent growth inhibition, and numbers from -100% - 0 represent cell death. […]
Compounds without any hit were thinned out: in the full panel of roughly 83,000, 20% have a hit. Calls of active or inactive are those of the source. How the source made its calls: active means growth percent below 10; inactive means the rest.
The categories you may choose from are active, inactive

Example cases with answers are listed next.
O=C(NN1C(=O)/C(=C/C=C/c2ccc([N+](=O)[O-])o2)SC1=S)c1ccccc1O = active
O=C(N1c2ccccc2Sc2ccccc21)n1ccc2cccnc21 = inactive
Cc1cccc(Nc2nc3ccccc3nc2/C=C/c2ccc(F)cc2)c1 = inactive

[Q] Fill in: this test's call for CC1(C)CC[C@]2(C(=O)O)CC[C@]3(C)C(=CCC4[C@@]5(C)C[C@@H](O)[C@@H]6OC(c7ccccc7F)OC[C@@]6(C)C5CC[C@]43C)C2C1 (stereo not given in full) is ___
[A] inactive

[Q] Fill in: this test's call for COc1ccc(C(=O)/C=C/c2cccc(Br)c2)cc1S(N)(=O)=O is ___
[A] inactive

[Q] Fill in: this test's call for C#CCOc1ccc(/C=N/Nc2nc(-c3cc4cc(Br)ccc4oc3=O)cs2)cc1OC is ___
[A] inactive

[Q] Fill in: this test's call for COc1ccc(-c2nnc3ccc(N/N=C/c4ccc(C)cc4)nn23)cc1 is ___
[A] inactive

[Q] Fill in: this test's call for C=C1CCC2C3(C)COC(c4cc(F)cc(F)c4)OC3CCC2(C)C1CC(O)C1=CCOC1=O (stereo not given) is ___
[A] inactive

[Q] Fill in: this test's call for CC1=C(C(=O)OC(C)C)C(c2cccc(O)c2)NC(=S)N1 (stereo not given) is ___
[A] inactive

[Q] Fill in: this test's call for Cc1ccc(C(=O)NN2C(=O)/C(=C/C=C/c3ccc([N+](=O)[O-])o3)SC2=S)cc1 is ___
[A] active
